Test system: 857933-349-R-J2-PDC complex spheroid viability
Assay: Anticancer human tumor 857933-349-R-J2-PDC patient-derived colon adenocarcinoma cell line growth inhibition [POLQ]
Details: curve of first compound; second compound 0.0316 µM
Measured pIC50 accompanies every entry in the list below.
pIC50 is a log-scale quantity: -log10 of the concentration expressed in molar.

>>> obs_value("CCc1c2c(nc3ccc(O)cc13)-c1cc3c(c(=O)n1C2)COC(=O)[C@]3(O)CC + COC1C(OC(N)=O)C(O)C(Oc2ccc3c(O)c(NC(=O)c4ccc(O)c(CC=C(C)C)c4)c(=O)oc3c2C)OC1(C)C")
7.70

Recall the recorded pIC50 for CC1COCCN1c1cc(-c2ccnn2C)c2ccnc(-c3ccn[nH]3)c2n1 (stereo not given) + Cc1cccc(N(C)C(=O)C2C(O)CCN2c2nc(C)cc(C(F)(F)F)c2C#N)c1 with 857933-349-R-J2-PDC complex spheroid viability and state it.
6.73

###

Test system: 857933-349-R-J2-PDC complex spheroid viability
Assay: Anticancer human tumor 857933-349-R-J2-PDC cell line growth inhibition [POLQ];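 also: spheroids exposed to compounds for seven days before readout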
Conditions: second compound 10 µM; first compound 0.316 µM; stronger effect = lower value
Measured viability, T/C accompanies every entry in the list below.
The figure you give is taken to be in %; do not add the unit.

Worked examples follow.
>>> obs_value("CCc1cc2c(N3CCc4c(cc(Cn5ccnc5)cc4-c4cn(C)nc4C(F)(F)F)C3=O)ccnc2c(OC)n1 + Nc1ccc(C#CCN(C(=O)Cc2ncc(C(F)(F)F)cc2C(F)(F)F)c2ccc(F)cc2)nn1")
79.6
>>> obs_value("COc1ccc([C@@H](O)c2cc(-c3ncnc4cc(N5CCOCC5)ccc34)c(F)cc2Cl)nn1 + Cc1cccc(N(C)C(=O)C2C(O)CCN2c2nc(C)cc(C(F)(F)F)c2C#N)c1")
76.3

Now take the following compound into account.
Data request, read-out viability, T/C, for CCc1cc2c(N3CCc4c(cc(Cn5ccnc5)cc4-c4cn(C)nc4C(F)(F)F)C3=O)cc(C)nc2c(OC)n1 + COC1C(OC(N)=O)C(O)C(Oc2ccc3c(O)c(NC(=O)c4ccc(O)c(CC=C(C)C)c4)c(=O)oc3c2C)OC1(C)C
72.7

###

Tested on: 857933-349-R-J2-PDC complex spheroid viability
Experiment: Anticancer human tumor 857933-349-R-J2-PDC cell line growth inhibition [POLQ];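 also: spheroids exposed to compounds for seven days before readout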
Settings: second compound 0.0316 µM; first compound 10 µM; stronger effect = lower value
Measured viability, T/C accompanies every entry in the list below.
The figure you give is taken to be in %; do not add the unit.

Data request, read-out viability, T/C, for O=C(c1cc(Cc2n[nH]c(=O)c3ccccc23)ccc1F)N1CCN(C(=O)C2CC2)CC1 + COC1C(OC(N)=O)C(O)C(Oc2ccc3c(O)c(NC(=O)c4ccc(O)c(CC=C(C)C)c4)c(=O)oc3c2C)OC1(C)C
84.1

Data request, read-out viability, T/C, for CCCS(=O)(=O)Nc1ccc(F)c(C(=O)c2c[nH]c3ncc(-c4ccc(Cl)cc4)cc23)c1F + Nc1ccc(C#CCN(C(=O)Cc2ncc(C(F)(F)F)cc2C(F)(F)F)c2ccc(F)cc2)nn1
15.6

Data request, read-out viability, T/C, for CCc1cc2c(N3CCc4c(cc(Cn5ccnc5)cc4-c4cn(C)nc4C(F)(F)F)C3=O)cc(C)nc2c(OC)n1 + Cc1cccc(N(C)C(=O)C2C(O)CCN2c2nc(C)cc(C(F)(F)F)c2C#N)c1
62.3

Data request, read-out viability, T/C, for CC(C)n1c(=O)n(C)c2cnc3cc(F)c(-c4ccc(OCCCN5CCCCC5)nc4)cc3c21 + Cc1cccc(N(C)C(=O)C2C(O)CCN2c2nc(C)cc(C(F)(F)F)c2C#N)c1
69.8

Data request, read-out viability, T/C, for CC1COCCN1c1cc(C2(S(C)(=N)=O)CC2)nc(-c2ccnc3[nH]ccc23)n1 (stereo not given) + COC1C(OC(N)=O)C(O)C(Oc2ccc3c(O)c(NC(=O)c4ccc(O)c(CC=C(C)C)c4)c(=O)oc3c2C)OC1(C)C
27.7
